Assay: Tissue distribution
Conditions: both, SD, rat, lung, iv, 6 μmol/kg
Measured attribute: concentration at 2 h (ng/g)

Structure string: CO[C@H]1C(=O)[C@]2(C)[C@@H](OC)C[C@H]3OC[C@@]3(OC(C)=O)[C@H]2[C@H](OC(=O)c2ccccc2)[C@]2(O)C[C@H](OC(=O)[C@H](O)[C@@H](NC(=O)OC(C)(C)C)c3ccccc3)C(C)=C1C2(C)C
Recorded value: 117

These measurements were taken from paper PMC12689286.
